- Tested on: SR leukemia
- Measurement description: NCI tumour cell line growth inhibition, 48 h
Experimental endpoint: GI50

# Query smiles, Subject of test, Experimental endpoint, Value reported
records = [
    ("O=c1oc2ccc(Br)cc2c(=O)n1-c1ccc(Cl)cc1F", "SR leukemia", "GI50", "0.798 µM"),
    ("COc1ccc(-c2cn(-c3cc(OC)c(OC)c(OC)c3)c(=O)[nH]2)cc1OC", "SR leukemia", "GI50", "> 100 µM"),
    ("CC/C=C\\C[C@H](O)C/C=C1/C(=O)C=C[C@@H]1C/C=C\\CCCCO", "SR leukemia", "GI50", "1.97 µM"),
    ("CN(C)CCNC(=O)c1ccc2oc3cc4ccccc4c(=O)n3c2c1", "SR leukemia", "GI50", "32.9 µM"),
    ("CC(=O)N[C@@H](Cc1ccc(OP(=O)(O)O)cc1)C(=O)N[C@H]1CCC(=O)N2CCC[C@@H](C(=O)NCc3ccccc3)N2C1=O", "SR leukemia", "GI50", "> 25 µM"),
]

###

- Tested on: CCRF-CEM leukemia
- Measurement description: NCI tumour cell line growth inhibition, 48 h
Each item that follows carries a reported TGI.

# Molecule, TGI
records = [
    ("CCCCCCCCCCOC(=O)NCCC", "48.4 µM"),
    ("CC(C(=O)n1ccnc1)N1c2ccccc2Sc2ccccc21 (configuration not stated)", "> 100 µM"),
    ("Cc1cc(C)nc(NS(=O)(=O)c2ccc(NC(=O)NC(F)(F)F)cc2)n1", "> 100 µM"),
    ("O=C(O)Cc1ccc(N=Nc2c(O)c(C(=O)O)cc3ccccc23)cc1", "> 100 µM"),
    ("Cc1cc(=O)n2c3c(c4c(cc13)c(CN(C)C)cc(=O)n4C)OC2", "> 100 µM"),
    ("Cc1ccc(C(=O)NCCN(C)C)c2nc3ccccc3cc12", "> 100 µM"),
    ("[Cu+2].[NH-]C(CC(=O)O)C(=O)O.[NH-]C(CC(=O)O)C(=O)O (configuration not stated)", "> 100 µM"),
    ("C#CCOCn1cc(C)c(=O)[nH]c1=O", "> 100 µM"),
    ("CC(=Nc1ccc(Cl)c(Cl)c1)c1ccncc1", "> 100 µM"),
    ("CC/C=C\\C[C@H](O)C/C=C1/C(=O)C=C[C@@H]1C/C=C\\CCCCO", "16.5 µM"),
    ("O=C1CC(CC(OCc2ccccc2)C(OCc2ccccc2)C(COCc2ccccc2)OCc2ccccc2)CC(=O)N1 (configuration not stated)", "> 100 µM"),
    ("COC(=O)[C@]12CSC[C@H]1C[C@H](c1cccc3ccccc13)N2", "> 100 µM"),
    ("CN1CCN(CCCN2c3ccccc3Sc3ccc(Cl)cc32)CC1", "15.1 µM"),
    ("COc1cc(C2CC(=O)Nc3c2c(C)nn3-c2nc3ccccc3[nH]2)cc(OC)c1O (configuration not stated)", "> 100 µM"),
    ("CCCCCCCCCCCCSC(=S)c1c(C)[nH]n(CCCCCCCCCCCC)c1=O", "> 100 µM"),
    ("CN1CCN(Cc2nc3c(s2)CCc2sccc2-3)CC1", "> 100 µM"),
    ("COC(=O)/N=[N+](\\[O-])C(c1ccccc1)c1ccccc1", "> 100 µM"),
    ("O=[N+]([O-])c1oc2ccc3ccccc3c2c1CCO", "39.9 µM"),
    ("COc1ccc(OC)c(/C=C/c2ccnc3ccccc23)c1", "5.91 µM"),
    ("O=C(CSSCC(=O)OCCS(=O)(=O)Nc1ccc(Br)cc1)OCCS(=O)(=O)Nc1ccc(Br)cc1", "> 100 µM"),
    ("CN(C)c1ccc(/C=C(\\NC(=O)c2ccccc2)C(=O)Nc2cccc(C(=O)NCCCO)c2)cc1", "> 100 µM"),
    ("C=CCOC(=O)Nc1cccn([C@H](CC(C)C)C(=O)NCCC(C)C)c1=O", "90.3 µM"),
]
